Entry source: patent US20120214862A1

- Test system: human Factor 7 mRNA
- test details: Inhibition of human Factor 7 mRNA by 2-10-2 MOE shortmers in HepB3 cells, electroporation, 1,000 nM
- Type: cell-based
- run conditions: electroporation, 1,000 nM oligonucleotide, approximately 24 hours, relative to untreated control cells
- Method: Short antisense oligonucleotides (shortmers) were designed to target a Factor 7 nucleic acid. The shortmers in Table 17 were designed as 2-10-2 MOE gapmers. […] Shortmers were evaluated for their ability to reduce human Factor 7 mRNA in HepB3 cells and compared with one 5-10-5 chimeric oligonucleotide from Table 16, ISIS 407939. […] After a treatment period of approximately 24 hours, RNA was isolated from the cells and Factor 7 mRNA levels were measured by real-time RT-PCR, as described herein. […]
In the oligonucleotide strings, read from the 5' end, every base follows the letter of its sugar. An asterisk marks phosphorothioate; unmarked linkages are phosphodiester. Other units and linkages are bracketed, terminal groups are in braces. A string of capitals states the bases alone. e = 2'-O-(2-methoxyethyl) (MOE); [5mC] = 5-methylcytosine; d = 2'-deoxy (DNA)
Classification by % inhibition of human Factor 7 mRNA follows these ranges: 1 (below 20%), 2 (20% to below 40%), 3 (40% or more)

Assign a bin to 435646 (antisense eT*eA*dG*dG*dA*d[5mC]*dT*dG*dG*dA*dG*d[5mC]*eT*eG) [compound 435646]
1

And what about the substance 435641 (antisense eG*eG*dT*d[5mC]*d[5mC]*d[5mC]*d[5mC]*dA*dT*d[5mC]*dA*d[5mC]*eT*eG) [compound 435641] ?
3

And what about the substance 435810 (antisense e[5mC]*eT*dG*dA*dG*dG*dG*dA*dA*dT*dG*dT*eT*eG) [compound 435810] ?
1

And what about the substance 435488 (antisense e[5mC]*eA*dG*dT*d[5mC]*d[5mC]*dT*dG*dG*dG*dT*d[5mC]*eA*eT) [compound 435488] ?
1

And what about the substance 435737 (antisense eG*eT*dG*d[5mC]*dA*dG*d[5mC]*d[5mC]*d[5mC]*dG*dG*d[5mC]*eA*e[5mC]) [compound 435737] ?
3

And what about the substance 435772 (antisense eG*e[5mC]*dA*dG*dT*d[5mC]*d[5mC]*d[5mC]*dT*dG*d[5mC]*dT*e[5mC]*eA) [compound 435772] ?
3

And what about the substance 435805 (antisense eT*eG*dA*dA*dT*dT*dA*d[5mC]*dT*dG*dA*dA*e[5mC]*e[5mC]) [compound 435805] ?
1

And what about the substance 435645 (antisense eG*eG*dA*dG*d[5mC]*dT*dG*dG*dT*d[5mC]*d[5mC]*dT*eT*eG) [compound 435645] ?
3

And what about the substance 435775 (antisense eT*e[5mC]*dT*dG*dG*dA*dA*dG*dG*dA*dA*d[5mC]*eA*eG) [compound 435775] ?
2

And what about the substance 435659 (antisense eT*eA*d[5mC]*d[5mC]*d[5mC]*d[5mC]*dT*d[5mC]*dG*dT*dG*dG*e[5mC]*eA) [compound 435659] ?
1

And what about the substance 435498 (antisense eT*eG*dG*dG*dA*dG*dA*d[5mC]*d[5mC]*d[5mC]*dT*dG*eG*eT) [compound 435498] ?
2

And what about the substance 435658 (antisense eT*e[5mC]*dA*d[5mC]*dT*dG*d[5mC]*dA*dG*dT*dA*d[5mC]*eT*eG) [compound 435658] ?
3

And what about the substance 435761 (antisense e[5mC]*eA*dG*dA*dT*dG*dA*dA*dA*dA*d[5mC]*dT*eT*eG) [compound 435761] ?
1

And what about the substance 435766 (antisense eG*e[5mC]*dA*d[5mC]*d[5mC]*dT*dG*d[5mC]*dA*dG*d[5mC]*d[5mC]*eA*eG) [compound 435766] ?
3

And what about the substance 435802 (antisense eG*eT*d[5mC]*dA*d[5mC]*d[5mC]*dT*dA*dG*dA*d[5mC]*d[5mC]*eA*eA) [compound 435802] ?
3

And what about the substance 435812 (antisense eG*e[5mC]*dT*dG*dA*dG*d[5mC]*dA*dG*dA*dG*dA*eT*e[5mC]) [compound 435812] ?
2

And what about the substance 435638 (antisense eA*eG*d[5mC]*d[5mC]*d[5mC]*dT*dG*dA*dA*dG*d[5mC]*d[5mC]*e[5mC]*eA) [compound 435638] ?
3

And what about the substance 435800 (antisense eG*eG*dA*d[5mC]*d[5mC]*d[5mC]*dA*dA*dA*dG*dT*dG*eG*eG) [compound 435800] ?
1

And what about the substance 435653 (antisense eA*eT*d[5mC]*dA*dG*d[5mC]*dT*dG*dG*dT*d[5mC]*dA*eT*e[5mC]) [compound 435653] ?
2

And what about the substance 435776 (antisense eG*eG*dG*dA*d[5mC]*dA*d[5mC]*dT*d[5mC]*dA*d[5mC]*dA*e[5mC]*eT) [compound 435776] ?
3

And what about the substance 435815 (antisense e[5mC]*eT*d[5mC]*dT*dT*d[5mC]*d[5mC]*dG*dA*dG*d[5mC]*dA*eG*e[5mC]) [compound 435815] ?
3

And what about the substance 435637 (antisense eT*eG*dA*dA*dG*d[5mC]*d[5mC]*d[5mC]*dA*dA*dG*d[5mC]*eA*eG) [compound 435637] ?
1

And what about the substance 435821 (antisense eA*eG*dT*d[5mC]*dA*dG*dT*dA*d[5mC]*dA*dG*dA*e[5mC]*eA) [compound 435821] ?
1

And what about the substance 435738 (antisense e[5mC]*eA*dG*dA*dG*dG*dA*dT*dG*dA*dG*d[5mC]*eA*e[5mC]) [compound 435738] ?
1
